- system: cAMP and cAMP-inhibited cGMP 3',5'-cyclic phosphodiesterase 10A (Homo sapiens, UniProt Q9Y233)
- Sequence (Q9Y233 as listed by the source): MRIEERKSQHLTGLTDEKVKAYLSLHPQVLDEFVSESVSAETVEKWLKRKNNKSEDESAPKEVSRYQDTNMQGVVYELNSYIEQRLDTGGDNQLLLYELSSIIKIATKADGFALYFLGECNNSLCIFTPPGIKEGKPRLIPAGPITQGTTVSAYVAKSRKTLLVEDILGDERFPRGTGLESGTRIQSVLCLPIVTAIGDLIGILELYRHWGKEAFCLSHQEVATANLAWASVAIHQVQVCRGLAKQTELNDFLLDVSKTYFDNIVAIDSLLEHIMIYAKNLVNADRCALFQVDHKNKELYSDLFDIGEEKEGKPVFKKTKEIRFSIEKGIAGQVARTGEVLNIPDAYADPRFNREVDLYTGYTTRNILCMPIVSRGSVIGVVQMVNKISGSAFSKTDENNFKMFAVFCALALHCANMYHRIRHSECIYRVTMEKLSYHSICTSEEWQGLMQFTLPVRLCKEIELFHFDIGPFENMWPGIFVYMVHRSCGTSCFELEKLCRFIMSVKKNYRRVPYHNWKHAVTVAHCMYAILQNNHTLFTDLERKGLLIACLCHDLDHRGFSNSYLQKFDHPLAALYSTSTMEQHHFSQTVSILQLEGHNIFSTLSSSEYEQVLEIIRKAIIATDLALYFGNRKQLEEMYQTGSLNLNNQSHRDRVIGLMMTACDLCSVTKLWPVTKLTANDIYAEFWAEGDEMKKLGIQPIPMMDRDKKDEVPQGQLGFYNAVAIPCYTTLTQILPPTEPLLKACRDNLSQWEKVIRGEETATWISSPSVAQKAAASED
pIC50: −log10 of the molar value.
# binarize pIC50: threshold 8 inclusive, high side t, low side f

>>> label_class("O=C(Nc1cccc(N2CCS(=O)(=O)CC2)c1)c1nc(C2CC2)cnc1Nc1cncnc1 [Roche-Dataset for PDE10A, Compound 777]")
"f"
>>> label_class("COc1nc2cc(NC(=O)c3c(C(=O)N4CCC4)cnn3C)ccn2n1 [Roche-Dataset for PDE10A, Compound 745]")
"f"
>>> label_class("O=C(Nc1ccc(-c2ccccn2)s1)c1nc(C2CC2)ccc1Nc1cncnc1")
"t"
>>> label_class("CN(C(=O)c1cnn(C)c1C(=O)N[C@@H]1CCn2cc(-c3ccccc3)nc2C1)C1COC1 [Roche-Dataset for PDE10A, Compound 248]")
"f"
>>> label_class("Cn1nc(N2CCCC2)nc1CCc1nc2c(C#N)cccn2n1 [Roche-Dataset for PDE10A, Compound 342]")
"f"
>>> label_class("Cn1ncc(C(=O)N2CCOCC2)c1C(=O)N[C@H]1CCn2cc(-c3ccccc3Cl)nc2C1 [Roche-Dataset for PDE10A, Compound 1009]")
"f"
>>> label_class("Cc1c(Cl)cc(OCC(=O)N2CCOCC2)c2nc(CCc3nc(N4CCCC4)nn3C)nn12 [Roche-Dataset for PDE10A, Compound 23]")
"t"
>>> label_class("CS(=O)(=O)c1ccccc1NC(=O)c1nc(C2CC2)ccc1Nc1cncnc1 [Roche-Dataset for PDE10A, Compound 1071]")
"f"
>>> label_class("CCOc1cc(NC(=O)c2nc(C3CC3)cnc2Nc2cncnc2)ccn1 [Roche-Dataset for PDE10A, Compound 765]")
"f"
>>> label_class("CCn1cc(-c2ccccc2)nc1CCc1nc2ccccc2nc1C [Roche-Dataset for PDE10A, Compound 87]")
"f"
>>> label_class("Cc1c(Br)cc(C(F)(F)F)c2nc(CCc3nc(N4CCCC4)nn3C)nn12 [Roche-Dataset for PDE10A, Compound 135]")
"t"
